# TEST DESCRIPTION: protease stability score; higher = more stable; yeast display proteolysis, trypsin and chymotrypsin;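 note: log10 excess protease needed over predicted unfolded state with 0 meaning unfolded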
ASSAY METRIC: protease stability score
Give bare numbers.

The following sequences have reported results that may help.
>>> measured_number("DEERELEELMQRLISLMKNGNPKEVAKLLDPNVRVQYGDKRLHGREQAIRRIESLRRHVDHVTMSIESLQVEGDKVSARIEAVYDVNGTQDQRTIELELRQVNGKLRFKHITFK")
0.017
>>> measured_number("DEEQMKKVVEQLLQALQNKDPEKIVQLVDEDVEFTLVDEKYKGHEDVRKLVKKLVDAGAEFRIDRHEATGDQAHVDTQWKVGDYTLKVTVTYVVRDDKVEKVEIRWSEEAKKAMKEG")
1.11

Below is a list of sequences. For each, state its recorded protease stability score.
1. DDQEERDWNERMKQVLRTGDEHRLEQLMDENVRMRVGDSVVTGREKVRQVFHELMKQADKIEVKSVSAQGNEVLIRFVLNHNGKNDDVVIEVRVHNGRIKEIVIRSK
2. DEEEAHKFQEAVERNDFEKFVRNADPNAHVQVGDQHIDGHDKMRKQYHDLKRAADKIEYKSIDVQGDKIDVKFTVRFNGREYEVHMQIEVHNGRLKTVKYDATSEHNRTILQEMMS

Result:
-0.001
-0.032
